- target.of.assay: Fibroblast growth factor receptor 1 (Homo sapiens)
- Sequence (P11362 whole entry): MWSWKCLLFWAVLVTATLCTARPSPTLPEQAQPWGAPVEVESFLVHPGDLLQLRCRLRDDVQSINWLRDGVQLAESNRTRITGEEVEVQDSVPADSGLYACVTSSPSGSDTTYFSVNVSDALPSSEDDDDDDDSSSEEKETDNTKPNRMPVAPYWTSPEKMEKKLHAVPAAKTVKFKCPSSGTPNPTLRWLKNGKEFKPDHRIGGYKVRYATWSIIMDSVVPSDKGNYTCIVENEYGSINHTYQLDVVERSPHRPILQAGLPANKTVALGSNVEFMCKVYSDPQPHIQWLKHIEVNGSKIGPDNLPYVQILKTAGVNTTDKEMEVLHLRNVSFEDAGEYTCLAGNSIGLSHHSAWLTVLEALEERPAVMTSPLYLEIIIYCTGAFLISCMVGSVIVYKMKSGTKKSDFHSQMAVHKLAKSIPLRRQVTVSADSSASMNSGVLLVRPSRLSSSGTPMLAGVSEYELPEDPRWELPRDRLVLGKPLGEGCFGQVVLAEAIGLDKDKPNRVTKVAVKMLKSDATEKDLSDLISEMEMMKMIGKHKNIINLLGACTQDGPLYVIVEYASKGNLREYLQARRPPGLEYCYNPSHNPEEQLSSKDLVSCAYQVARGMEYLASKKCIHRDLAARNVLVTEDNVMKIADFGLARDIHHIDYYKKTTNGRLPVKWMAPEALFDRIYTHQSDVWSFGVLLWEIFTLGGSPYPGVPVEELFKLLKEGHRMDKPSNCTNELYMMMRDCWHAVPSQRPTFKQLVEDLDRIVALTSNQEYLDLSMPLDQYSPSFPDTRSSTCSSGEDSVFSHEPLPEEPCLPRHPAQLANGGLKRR
- assay.method.text: Reactions were carried out in 10 μM ATP.
measured.attribute: IC50 (nM)

1) CN[C@@H]1CC2OC([C@@H]1OC)n1c3ccccc3c3c4c(c5c6ccccc6n2c5c31)C(=O)NC4 (stereo partly specified)	8

----------
- target.of.assay: Protein kinase C zeta type (Homo sapiens)
- Sequence (Q05513 whole entry): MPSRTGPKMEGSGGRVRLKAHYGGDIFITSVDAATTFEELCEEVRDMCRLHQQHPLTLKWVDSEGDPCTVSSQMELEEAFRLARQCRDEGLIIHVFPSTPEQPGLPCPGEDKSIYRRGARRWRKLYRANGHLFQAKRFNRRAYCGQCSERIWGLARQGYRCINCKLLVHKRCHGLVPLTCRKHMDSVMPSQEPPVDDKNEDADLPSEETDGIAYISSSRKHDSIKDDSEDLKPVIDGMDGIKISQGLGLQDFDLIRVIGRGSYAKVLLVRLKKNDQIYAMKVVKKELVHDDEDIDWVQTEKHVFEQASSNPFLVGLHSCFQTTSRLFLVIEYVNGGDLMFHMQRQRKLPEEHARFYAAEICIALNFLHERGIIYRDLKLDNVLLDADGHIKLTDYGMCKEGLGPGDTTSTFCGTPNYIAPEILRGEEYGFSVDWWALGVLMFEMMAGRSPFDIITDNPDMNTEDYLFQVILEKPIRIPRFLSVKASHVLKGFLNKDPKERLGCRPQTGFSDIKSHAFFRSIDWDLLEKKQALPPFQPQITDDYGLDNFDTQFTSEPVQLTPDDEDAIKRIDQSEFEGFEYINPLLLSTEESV
measured.attribute: IC50 (nM)

1) CN[C@@H]1CC2OC([C@@H]1OC)n1c3ccccc3c3c4c(c5c6ccccc6n2c5c31)C(=O)NC4 (stereo partly specified)	204

----------
- target.of.assay: Tyrosine-protein kinase ABL1 (Homo sapiens, UniProt P00519, E255K)
- Sequence (P00519 whole entry E255K): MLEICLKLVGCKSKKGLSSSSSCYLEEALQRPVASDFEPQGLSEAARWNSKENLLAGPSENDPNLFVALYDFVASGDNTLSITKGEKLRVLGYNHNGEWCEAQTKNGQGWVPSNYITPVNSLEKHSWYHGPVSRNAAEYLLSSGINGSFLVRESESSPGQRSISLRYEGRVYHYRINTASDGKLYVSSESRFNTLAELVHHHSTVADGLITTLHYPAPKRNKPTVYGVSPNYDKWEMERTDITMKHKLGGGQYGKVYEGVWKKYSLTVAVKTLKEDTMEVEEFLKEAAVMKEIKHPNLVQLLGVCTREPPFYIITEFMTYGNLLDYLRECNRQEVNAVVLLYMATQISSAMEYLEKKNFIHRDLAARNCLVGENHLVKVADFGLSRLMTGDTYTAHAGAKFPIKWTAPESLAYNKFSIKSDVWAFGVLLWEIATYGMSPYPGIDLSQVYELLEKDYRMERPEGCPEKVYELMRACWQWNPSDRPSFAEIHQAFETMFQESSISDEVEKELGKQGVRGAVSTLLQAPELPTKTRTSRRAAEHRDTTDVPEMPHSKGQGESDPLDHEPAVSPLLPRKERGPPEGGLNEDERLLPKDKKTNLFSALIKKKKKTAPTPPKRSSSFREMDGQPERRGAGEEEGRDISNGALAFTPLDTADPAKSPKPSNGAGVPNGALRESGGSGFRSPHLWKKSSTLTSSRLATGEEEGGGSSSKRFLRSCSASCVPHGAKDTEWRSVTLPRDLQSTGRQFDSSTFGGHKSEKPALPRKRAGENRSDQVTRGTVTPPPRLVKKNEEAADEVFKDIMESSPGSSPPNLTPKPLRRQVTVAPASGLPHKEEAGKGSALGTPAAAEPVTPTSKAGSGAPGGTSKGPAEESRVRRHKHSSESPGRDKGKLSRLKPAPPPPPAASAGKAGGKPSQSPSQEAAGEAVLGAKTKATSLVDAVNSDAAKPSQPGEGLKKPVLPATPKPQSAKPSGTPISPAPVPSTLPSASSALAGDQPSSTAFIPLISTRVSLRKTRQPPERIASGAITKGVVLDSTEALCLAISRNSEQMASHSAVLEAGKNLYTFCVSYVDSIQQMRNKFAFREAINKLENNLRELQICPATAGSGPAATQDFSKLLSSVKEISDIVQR
- assay.method.text: Reactions were carried out in 10 μM ATP.
measured.attribute: IC50

1. CN[C@@H]1CC2OC([C@@H]1OC)n1c3ccccc3c3c4c(c5c6ccccc6n2c5c31)C(=O)NC4 (stereo partly specified)	438 nM
